PROTOCOL NOTES: Cmax in po dosed monkey
Assay type: ADME, organism-based, Macaca mulatta
Parameters: route oral
CONDITION LABEL: rhesus monkey, in vivo
ENDPOINT: Cmax (ng/mL)
The response must be a number in ng/mL with no trailing unit.

Query: Input COCCCc1ccc2oc(-c3ccc(OC)c(OC)c3)cc2c1 , output reported Cmax.
Result: 969

----------
PROTOCOL NOTES: Oral bioavailability in rat
Format: ADME, organism-based
CONDITION LABEL: in vivo
ENDPOINT: bioavailability

Query: Consider the molecule COCCCc1ccc2oc(-c3ccc(OC)c(OC)c3)cc2c1 and give its recorded bioavailability.
Result: 51%

----------
PROTOCOL NOTES: Half-life in po dosed rat
CONDITION LABEL: in vivo
ENDPOINT: t1/2 (h)
Give your result in h as a bare value.

Query: Please indicate t1/2 recorded for COCCCc1ccc2oc(-c3ccc(OC)c(OC)c3)cc2c1
Result: 3.8

----------
PROTOCOL NOTES: Tmax in mouse at 10 mg/kg, po
Assay type: ADME, organism-based
CONDITION LABEL: in vivo
ENDPOINT: Tmax

Query: Item COCCCc1ccc2oc(-c3ccc(OC)c(OC)c3)cc2c1 : provide Tmax
Result: 42 min

----------
PROTOCOL NOTES: Ratio of AUC in ICR mouse brain to AUC in ICR mouse plasma at 10 mg/kg, po measured at 0.333 hrs
Format: ADME, organism-based
CONDITION LABEL: read-out: Ratio AUC
ENDPOINT: Kp at 0.333 h
I'd appreciate a reply containing only the number, no unit.

Query: For the compound COCCCc1ccc2oc(-c3ccc(OC)c(OC)c3)cc2c1 , report Kp at 0.333 h.
Result: 1.2

----------
PROTOCOL NOTES: Clearance in iv dosed monkey
Type: ADME, organism-based, Macaca mulatta
CONDITION LABEL: rhesus monkey, in vivo
ENDPOINT: clearance (mL/min/kg)
Note: unit mL/min/kg is implicit; provide only the numeric part.

Query: Assign clearance to the following record: COCCCc1ccc2oc(-c3ccc(OC)c(OC)c3)cc2c1
Result: 7

----------
PROTOCOL NOTES: AUC (infinity) in mouse at 3 mg/kg, po
Type: ADME, organism-based
Parameters: dose 3 mg/kg, time infinity, route oral
CONDITION LABEL: in vivo
ENDPOINT: AUC(0-inf) (µg·h/mL)
Just the number please, in µg·h/mL, no unit attached.

Query: Given the compound COCCCc1ccc2oc(-c3ccc(OC)c(OC)c3)cc2c1 , write its reported AUC(0-inf).
Result: 0.283

----------
PROTOCOL NOTES: Tmax in mouse at 30 mg/kg, po
Format: ADME, organism-based
CONDITION LABEL: in vivo
ENDPOINT: Tmax (h)
Give the number; h is assumed, so skip it.

Query: Input COCCCc1ccc2oc(-c3ccc(OC)c(OC)c3)cc2c1 , output reported Tmax.
Result: 3

----------
PROTOCOL NOTES: Oral bioavailability in mouse at 30 mg/kg
Type: ADME, organism-based
CONDITION LABEL: in vivo
ENDPOINT: bioavailability (%)
Numeric only. Scale: %

Query: Quick one: give measured bioavailability for COCCCc1ccc2oc(-c3ccc(OC)c(OC)c3)cc2c1
Result: 79.1

----------
PROTOCOL NOTES: AUC (infinity) in mouse at 10 mg/kg, po
Format: ADME, organism-based
Design: dose 10 mg/kg, time infinity, route oral
CONDITION LABEL: in vivo
ENDPOINT: AUC(0-inf) (ng·h/mL)
# number only, unit ng·h/mL dropped from output

Query: Return AUC(0-inf) for the following molecule: COCCCc1ccc2oc(-c3ccc(OC)c(OC)c3)cc2c1
Result: 2290
